Cited source: patent US20240317840A1

# Tested system: HBsAg clinical mutation T126S (Hepatitis B virus)
# Experiment notes: sandwich ELISA, captured mutant HBsAg from culture supernatant;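 further: Anti-HBsAg antibodies tested for binding to mutant HBsAg secreted by stably transfected cell lines, supernatant incubated 1 h on antibody-coated plates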
Classify on IC50 using one: < 0.03 nM; two: ≥ 0.03 nM and < 0.08 nM; three: ≥ 0.08 nM

>  <Binder>
NOV3834 (antibody, human IgG1, kappa, V domains shown, Full human IgG1 (kappa) expressed in CHO cells) VH: QVQLVESGGGVVQPGRSLRLSCAASGFTFNRYGMHWVRQAPGKGLEWVAGIWHDGSHKYYADSLRGRFTISRDNAKNTLDLQLNRLRAEDTSVYYCVRQTNRGRLDDAFDIWGQGTMVTVSS VL: DIQMTQSPSSLSAAVGDRVTISCRASQTISSYLNWYQQKPGEAPKLLIYAASTLQSGVPSRFGGSGSGTDFTLTISSLQPEDSATYYCQQNYDTLWTFGQGTKVEIKR

>  <Discrete label>
three

$$$$

(Q) Record NOV3839 (antibody, human IgG1, kappa, V domains shown, Full human IgG1 (kappa) expressed in CHO cells) VH: QVQLQESGGRLVRPGGSLRLSCAASGFIFTDYYMTWIRQAPGKGPEWIAFITSGGETTYYADSVKGRFTISRDNAKKSLFLQMYSLRADDTAVYYCVRAHFDIYQYDTRGDFTYYFDNWGLGTLVSVSS VL: EIVMTQSPATLSVSPGERVTLSCRASQSVSSSLAWYQQKPGRAPRLLIYGASTRATGVPARFSGGGSGTDFTLTISSLQSEDFAVYYCHQYINWPPGDTFGQGTRLDIKR — which class?
(A) three

(Q) Record NOV3838 (antibody, human IgG1, kappa, V domains shown, Full human IgG1 (kappa) expressed in CHO cells) VH: QVQLQESGGRLVRPGGSLRLSCAASGFIFTDYYMTWIRQAPGKGPEWIAFITSGGETTYYADSVKGRFTISRDNAKKSLFLQMYSLRADDTAVYYCVRAHFDLYQYDTRGDFTYYFDNWGLGTLVSVSS VL: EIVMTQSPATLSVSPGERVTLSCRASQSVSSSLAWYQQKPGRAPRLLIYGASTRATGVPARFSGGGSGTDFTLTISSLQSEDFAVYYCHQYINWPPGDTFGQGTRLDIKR — which class?
(A) three

(Q) Record NOV3832 (antibody, human IgG1, lambda, V domains shown, Full human IgG1 (lambda) expressed in CHO cells) VH: EMQVLESGGGLVQPGGSLRLSCAASGFTFDNYAMSWVRQVPGKGLEWVSSISGSGGSTYYADSVKGQFTISRDNSKNTLYLQMNSLRAEDTAVYYCAKSSILSGGHARVYGIDVWGQGTTVTVSS VL: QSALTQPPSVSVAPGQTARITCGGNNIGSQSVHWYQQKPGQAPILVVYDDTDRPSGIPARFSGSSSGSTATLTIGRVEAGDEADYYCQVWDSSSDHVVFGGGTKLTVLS — which class?
(A) two

(Q) Record NOV3540 (antibody, human IgG1, kappa, V domains shown, Full human IgG1 (kappa) expressed in CHO cells) VH: EVQLLESGGGLVQPGGSLRLSCAASGFTFSPHAMSWVRQAPGKGLEWVSAISDSGGSTHYADSVKGRFTISRDNSKNTLYLQMNSLRAEDTAVYYCARDDDAWSGYDYWFDYWGQGTLVTVSS VL: DIQMTQSPSSLSASVGDRVTITCRASQSISPYLNWYQQKPGKAPKLLIYAADSLQSGVPSRFSGSGSGTDFTLTISSLQPEDFATYYCQQSYKIPLTFGQGTKVEIKR — which class?
(A) two

(Q) Record NOV3840 (antibody, human IgG1, lambda, V domains shown, Full human IgG1 (lambda) expressed in CHO cells) VH: EVQLLESGGGLVQPGGSRRLSCAASGFTFSYYGMNWVRQAPGKGLEWVSGITNSGSITYYADSVKGRFSISRDNSKNTLFLQMNSLRAEDTAVYYCAKVGVRSSSGMWDLDYWGQGTLVTVSS VL: SYVLTQPPSVSVAPGQTARLSCGGNNIGSKSLQWYQQKPGQAPVLVVNDDSDRPSGIPERFSGSNSGNTATLTISRVEAGDEADYYCQVWDTSSDHVVFGGGTKLTVLG — which class?
(A) one

(Q) Record NOV3833 (antibody, human IgG1, lambda, V domains shown, Full human IgG1 (lambda) expressed in CHO cells) VH: EMQVLESGGGLVQPGGSLRLSCAASGFTFHNYAMSWVRQVPGKGLEWVSSISGSGGSTYYADSVKGQFTISRDNSKNTLYLQMNSLRAEDTAVYYCAKSSILSGGHARVYGIDVWGQGTTVTVSS VL: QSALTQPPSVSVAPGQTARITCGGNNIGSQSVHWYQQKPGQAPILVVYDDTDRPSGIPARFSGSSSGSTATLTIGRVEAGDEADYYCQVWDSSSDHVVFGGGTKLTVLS — which class?
(A) one

(Q) Record NOV3831 (antibody, human IgG1, lambda, V domains shown, Full human IgG1 (lambda) expressed in CHO cells) VH: EMQVLESGGGLVQPGGSLRLSCAASGFTFNNYAMSWVRQVPGKGLEWVSSISGSGGSTYYADSVKGQFTISRDNSKNTLYLQMNSLRAEDTAVYYCAKSSILSGGHARVYGIDVWGQGTTVTVSS VL: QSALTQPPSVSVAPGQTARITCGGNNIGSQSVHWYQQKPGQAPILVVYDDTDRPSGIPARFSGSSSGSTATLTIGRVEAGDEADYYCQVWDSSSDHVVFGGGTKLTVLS — which class?
(A) one
